These data points were gathered from patent US20110178053A1.

# Tgt: Pim-1 (Homo sapiens)
# Construct: His6-labelled recombinant full-length human Pim-1, Pim-2 or Pim-3 protein; His6; made in house
# Sequence (P11309 whole entry): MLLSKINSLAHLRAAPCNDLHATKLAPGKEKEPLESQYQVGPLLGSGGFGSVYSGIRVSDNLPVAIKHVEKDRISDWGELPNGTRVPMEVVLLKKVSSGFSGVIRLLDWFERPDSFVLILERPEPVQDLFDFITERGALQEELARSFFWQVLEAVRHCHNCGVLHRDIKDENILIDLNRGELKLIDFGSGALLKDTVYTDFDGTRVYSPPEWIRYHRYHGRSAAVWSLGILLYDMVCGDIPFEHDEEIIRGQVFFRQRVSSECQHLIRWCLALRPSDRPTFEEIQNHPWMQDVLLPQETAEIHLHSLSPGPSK
# Assay overview: TR-FRET assay, Pim-1 kinase (phosphorylation of Bad Ser112)
# Assay type: biochemical
# Experimental conditions: TR-FRET; ATP 40 μM; read-out: IC50 Pim1
Property name: IC50

INSERT INTO results (structure_string, test_result) VALUES
  ('CCCN(C)C(=O)c1cnc2[nH]c3cnc(-c4cccnc4)cc3c2c1', '100 to 1000 nM'),
  ('c1cncc(-c2cc3c(cn2)[nH]c2ncc(-c4ccc(N5CCN(C6CC6)CC5)cc4)cc23)c1', '1 to 100 nM'),
  ('COC(=O)c1cnc2[nH]c3cnc(-c4cccnc4)cc3c2c1', '100 to 1000 nM'),
  ('Oc1cccc(-c2c(F)cnc3[nH]c4cnc(-c5cccnc5)cc4c23)c1', '1 to 100 nM'),
  ('NS(=O)(=O)c1cccc(-c2c(F)cnc3[nH]c4cnc(-c5cccnc5)cc4c23)c1', '1 to 100 nM');

Query :: Would you kindly share the measured IC50 for CC(=O)N1CCN(c2ccc(-c3cnc4[nH]c5cnc(-c6cccnc6)cc5c4c3)cc2)CC1 ?
Result :: 1 to 100 nM

Query :: Would you kindly share the measured IC50 for Fc1cnc2[nH]c3cnc(-c4cccnc4)cc3c2c1-c1ccc(OCCN2CCCC2)cc1 ?
Result :: 1 to 100 nM

Query :: Would you kindly share the measured IC50 for Fc1cc(F)cc(-c2c(F)cnc3[nH]c4cnc(-c5cccnc5)cc4c23)c1 ?
Result :: 1 to 100 nM
